All figures here come from patent US20150018301A1.

target: LRRK2 WT (Homo sapiens); assay: In vitro kinase assay: LRRK2 autophosphorylation; format: biochemical; conditions: compound 16 μM; phosphorylation normalized to absence of compound; mean ± S.E.M. of three experiments
Sequence (Q5S007 whole entry): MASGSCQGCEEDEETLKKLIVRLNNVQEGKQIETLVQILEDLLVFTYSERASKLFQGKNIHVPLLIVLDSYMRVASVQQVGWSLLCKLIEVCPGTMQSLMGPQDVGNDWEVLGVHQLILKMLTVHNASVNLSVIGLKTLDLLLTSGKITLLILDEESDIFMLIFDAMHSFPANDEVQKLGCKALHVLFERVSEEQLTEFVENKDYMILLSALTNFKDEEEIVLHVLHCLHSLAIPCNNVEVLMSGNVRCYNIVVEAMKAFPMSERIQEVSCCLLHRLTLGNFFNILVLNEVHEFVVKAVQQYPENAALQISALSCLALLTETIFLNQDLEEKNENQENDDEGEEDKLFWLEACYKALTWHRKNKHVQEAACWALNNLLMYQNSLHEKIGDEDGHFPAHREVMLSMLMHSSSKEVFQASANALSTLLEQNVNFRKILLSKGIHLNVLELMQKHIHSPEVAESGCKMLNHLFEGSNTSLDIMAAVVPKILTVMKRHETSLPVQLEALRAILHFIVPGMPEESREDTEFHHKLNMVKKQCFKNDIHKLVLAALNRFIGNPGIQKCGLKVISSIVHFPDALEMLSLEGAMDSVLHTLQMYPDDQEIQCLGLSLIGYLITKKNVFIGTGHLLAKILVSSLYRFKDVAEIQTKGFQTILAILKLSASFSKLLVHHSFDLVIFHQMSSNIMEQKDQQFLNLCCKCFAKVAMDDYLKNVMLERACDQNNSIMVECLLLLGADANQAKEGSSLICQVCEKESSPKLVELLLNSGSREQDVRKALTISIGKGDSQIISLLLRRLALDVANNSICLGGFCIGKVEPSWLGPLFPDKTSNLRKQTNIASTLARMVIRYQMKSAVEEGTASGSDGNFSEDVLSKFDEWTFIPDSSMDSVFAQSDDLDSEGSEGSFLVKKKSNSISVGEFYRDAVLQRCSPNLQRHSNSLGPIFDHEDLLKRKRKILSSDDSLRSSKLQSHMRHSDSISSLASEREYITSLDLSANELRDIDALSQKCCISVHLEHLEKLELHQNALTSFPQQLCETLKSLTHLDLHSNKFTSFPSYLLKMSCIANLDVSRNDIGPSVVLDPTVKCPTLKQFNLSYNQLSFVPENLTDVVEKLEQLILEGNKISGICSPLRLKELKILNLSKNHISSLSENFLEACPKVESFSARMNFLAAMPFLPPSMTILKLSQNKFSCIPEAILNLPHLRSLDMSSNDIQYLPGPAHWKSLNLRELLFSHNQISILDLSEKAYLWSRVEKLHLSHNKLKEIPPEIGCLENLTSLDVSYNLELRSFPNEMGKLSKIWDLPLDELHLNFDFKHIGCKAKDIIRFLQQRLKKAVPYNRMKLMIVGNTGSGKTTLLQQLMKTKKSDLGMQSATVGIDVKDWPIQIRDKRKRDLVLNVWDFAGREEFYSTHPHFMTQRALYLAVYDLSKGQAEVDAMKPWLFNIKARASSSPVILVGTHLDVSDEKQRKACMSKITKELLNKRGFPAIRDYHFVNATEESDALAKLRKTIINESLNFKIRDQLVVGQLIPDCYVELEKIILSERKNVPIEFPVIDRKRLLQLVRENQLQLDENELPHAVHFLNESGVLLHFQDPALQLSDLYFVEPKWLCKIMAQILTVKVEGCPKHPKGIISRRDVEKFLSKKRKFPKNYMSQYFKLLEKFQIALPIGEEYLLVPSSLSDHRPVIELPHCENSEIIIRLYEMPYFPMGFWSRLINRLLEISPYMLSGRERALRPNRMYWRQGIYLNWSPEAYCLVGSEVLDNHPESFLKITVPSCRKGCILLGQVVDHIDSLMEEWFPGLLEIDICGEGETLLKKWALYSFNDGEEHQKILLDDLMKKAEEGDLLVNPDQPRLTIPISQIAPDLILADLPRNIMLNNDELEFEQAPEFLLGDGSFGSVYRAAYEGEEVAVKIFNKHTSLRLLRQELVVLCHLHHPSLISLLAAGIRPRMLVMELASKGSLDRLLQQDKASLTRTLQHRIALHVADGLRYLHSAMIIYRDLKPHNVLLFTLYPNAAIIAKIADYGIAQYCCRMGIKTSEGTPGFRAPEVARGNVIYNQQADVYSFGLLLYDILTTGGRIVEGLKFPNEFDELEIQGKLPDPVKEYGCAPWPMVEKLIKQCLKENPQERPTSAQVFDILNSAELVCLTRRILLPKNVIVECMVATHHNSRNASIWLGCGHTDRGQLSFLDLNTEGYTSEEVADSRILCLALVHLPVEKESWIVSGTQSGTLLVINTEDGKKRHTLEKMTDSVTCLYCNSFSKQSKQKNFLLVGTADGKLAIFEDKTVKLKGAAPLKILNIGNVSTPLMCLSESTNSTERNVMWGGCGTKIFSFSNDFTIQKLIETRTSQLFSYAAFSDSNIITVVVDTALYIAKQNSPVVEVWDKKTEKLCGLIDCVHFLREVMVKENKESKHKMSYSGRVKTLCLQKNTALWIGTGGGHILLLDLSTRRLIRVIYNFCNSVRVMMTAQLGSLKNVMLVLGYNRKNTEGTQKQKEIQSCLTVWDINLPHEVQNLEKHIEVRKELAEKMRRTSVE
quantity_kind: LRRK2 autophosphorylation Average ± SEM

Query: What LRRK2 autophosphorylation Average ± SEM value was documented for this molecule, Cc1ccc(NC(=O)c2cccc(N(C)C)c2)cc1NC(=O)c1ccc(O)cc1 ?
Reply: 89.2 ± 2.7 % of control

---
Query: What LRRK2 autophosphorylation Average ± SEM value was documented for this molecule, NCCNS(=O)(=O)c1cccc2cnccc12 ?
Reply: 53.8 ± 34.5 % of control

Query: What LRRK2 autophosphorylation Average ± SEM value was documented for this molecule, O=c1cc(N2CCOCC2)oc2c(-c3ccccc3)cccc12 ?
Reply: 79.3 ± 3.6 % of control

Query: What LRRK2 autophosphorylation Average ± SEM value was documented for this molecule, N#CC(C#N)=Cc1ccc(O)c(O)c1 ?
Reply: 66.9 ± 2.0 % of control

Query: What LRRK2 autophosphorylation Average ± SEM value was documented for this molecule, CN[C@@H]1C[C@H]2O[C@@](C)([C@@H]1OC)n1c3ccccc3c3c4c(c5c6ccccc6n2c5c31)C(=O)NC4 [Inhibitor 6, Staurosporine, reference compound] ?
Reply: 1.9 ± 1.0 % of control

Query: What LRRK2 autophosphorylation Average ± SEM value was documented for this molecule, O=C1Nc2ccccc2/C1=C1\Nc2ccccc2C1=O ?
Reply: 82.0 ± 4.2 % of control

Query: What LRRK2 autophosphorylation Average ± SEM value was documented for this molecule, COc1cc2ncnc(Nc3cccc(Cl)c3)c2cc1OC ?
Reply: 63.7 ± 28.0 % of control

Query: What LRRK2 autophosphorylation Average ± SEM value was documented for this molecule, N#CC(C#N)=Cc1cc(O)c(O)c(O)c1 ?
Reply: 62.8 ± 15.8 % of control

Query: What LRRK2 autophosphorylation Average ± SEM value was documented for this molecule, CC(C)n1cnc2c(NCc3ccccc3)nc(NCCO)nc21 ?
Reply: 56.2 ± 30.8 % of control

Query: What LRRK2 autophosphorylation Average ± SEM value was documented for this molecule, N#C/C(=C/c1cc(Cl)cc(Cl)c1)c1cccnc1 ?
Reply: 90.8 ± 30.7 % of control

Query: What LRRK2 autophosphorylation Average ± SEM value was documented for this molecule, CC[C@@H](CO)Nc1nc(NCc2ccccc2)c2ncn(C(C)C)c2n1 ?
Reply: 69.4 ± 30.1 % of control

Query: What LRRK2 autophosphorylation Average ± SEM value was documented for this molecule, Cl.c1ccc(C2CN3CCSC3=N2)cc1 (stereo not shown) ?
Reply: 75.0 ± 2.3 % of control

Query: What LRRK2 autophosphorylation Average ± SEM value was documented for this molecule, Brc1ccc([C@H]2CN3CCSC3=N2)cc1 ?
Reply: 75.9 ± 3.9 % of control

Query: What LRRK2 autophosphorylation Average ± SEM value was documented for this molecule, O=C1Nc2ccc(I)cc2/C1=C/c1cc(Br)c(O)c(Br)c1 ?
Reply: 4.6 ± 2.9 % of control

Query: What LRRK2 autophosphorylation Average ± SEM value was documented for this molecule, CC1CNCCN1S(=O)(=O)c1cccc2cnccc12 (stereo not shown) ?
Reply: 80.3 ± 8.2 % of control

Query: What LRRK2 autophosphorylation Average ± SEM value was documented for this molecule, Cn1cc(C2=C(c3cn(CCCSC(=N)N)c4ccccc34)C(=O)NC2=O)c2ccccc21 [Inhibitor 33, Ro31-8220, reference compound] ?
Reply: 5.4 ± 3.0 % of control

Query: What LRRK2 autophosphorylation Average ± SEM value was documented for this molecule, O=C1Nc2ccccc2/C1=C1/Nc2ccccc2/C1=N\O ?
Reply: 6.0 ± 6.5 % of control

Query: What LRRK2 autophosphorylation Average ± SEM value was documented for this molecule, Cc1cc(O)c2c(=O)c3c(O)cc(O)c4c5c(O)cc(O)c6c(=O)c7c(O)cc(C)c8c1c2c(c34)c(c78)c65 ?
Reply: 57.4 ± 30.1 % of control
